Experiment: Population pharmacokinetic model of dabrafenib/hydroxy-dabrafenib (NONMEM) from plasma concentrations
Type: in vivo, human (patients)
Conditions: both sexes, human, plasma, oral, 150 mg twice daily, bootstrap median (n = 500 samples); read-out: V2/F, apparent central volume of distribution of DAB
property-measured: Vd/F (L)
Write the value in L as a bare number.

Name the reported Vd/F value associated with the compound CC(C)(C)c1nc(-c2cccc(NS(=O)(=O)c3c(F)cccc3F)c2F)c(-c2ccnc(N)n2)s1
38.3

----------
Test: Model-estimated systemic exposure (AUC) in BRAF^V600-mutated MM patients treated with CombiDT
Settings: human, plasma, oral, AUCTRA, median (range), patients with TRA-related DLT (n = 17); last AUC before onset of DLT
property-measured: AUC (ng·h/mL)
Write the value in ng·h/mL as a bare number.

Name the reported AUC value associated with the molecule CC(=O)Nc1cccc(-n2c(=O)n(C3CC3)c(=O)c3c(Nc4ccc(I)cc4F)n(C)c(=O)c(C)c32)c1
268

----------
Assay: Model-estimated systemic exposure (AUC) in BRAF^V600-mutated MM patients treated with CombiDT
Settings: human, plasma, oral, mean AUCDAB, after DAB dose reduction, n = 8
property-measured: AUC
# output: number + unit

Name the reported AUC value associated with the compound CC(C)(C)c1nc(-c2cccc(NS(=O)(=O)c3c(F)cccc3F)c2F)c(-c2ccnc(N)n2)s1 [DAB, Dabrafenib]
5040 ng·h/mL

----------
Assay: Model-estimated systemic exposure (AUC) in BRAF^V600-mutated MM patients treated with CombiDT
Conditions: human, plasma, oral, mean AUCDAB, before DAB dose reduction, n = 8
property-measured: AUC (ng·h/mL)
Write the value in ng·h/mL as a bare number.

Name the reported AUC value associated with the compound CC(C)(C)c1nc(-c2cccc(NS(=O)(=O)c3c(F)cccc3F)c2F)c(-c2ccnc(N)n2)s1
9010

----------
Assay: Model-estimated systemic exposure (AUC) in BRAF^V600-mutated MM patients treated with CombiDT
Settings: human, plasma, oral, AUCTRA, median (range), patients without TRA-related DLT (n = 35); average AUC over treatment course
property-measured: AUC (ng·h/mL)
Write the value in ng·h/mL as a bare number.

Name the reported AUC value associated with the compound CC(=O)Nc1cccc(-n2c(=O)n(C3CC3)c(=O)c3c(Nc4ccc(I)cc4F)n(C)c(=O)c(C)c32)c1 [TRA, trametinib]
268

----------
Assay: Population pharmacokinetic model of dabrafenib/hydroxy-dabrafenib (NONMEM) from plasma concentrations
Format: in vivo, human (patients)
Conditions: both sexes, human, plasma, oral, 150 mg twice daily, base DAB/OHD model; read-out: V2/F, apparent central volume of distribution of DAB
property-measured: Vd/F
# output: number + unit

Name the reported Vd/F value associated with the compound CC(C)(C)c1nc(-c2cccc(NS(=O)(=O)c3c(F)cccc3F)c2F)c(-c2ccnc(N)n2)s1
39.5 L

----------
In this section, each of the compounds is paired with its reported AUC.
Test: Model-estimated systemic exposure (AUC) in BRAF^V600-mutated MM patients treated with CombiDT
Conditions: human, plasma, oral, median AUCM3 (mean AUC during the first three months of treatment), 30 MM patients of the exposure-survival analysis
Write the value in ng·h/mL as a bare number.

CC(=O)Nc1cccc(-n2c(=O)n(C3CC3)c(=O)c3c(Nc4ccc(I)cc4F)n(C)c(=O)c(C)c32)c1 : 292

Kindly consider the entry below.
Name the reported AUC value associated with the compound CC(C)(C)c1nc(-c2cccc(NS(=O)(=O)c3c(F)cccc3F)c2F)c(-c2ccnc(N)n2)s1
7720

Cited source for all entries: paper PMC7226106
